Sourced from PubChem BioAssay AID504652

- experimental-target: D(1A) dopamine receptor (Homo sapiens) (UniProt P21728)
- Sequence (P21728 whole entry, looked up): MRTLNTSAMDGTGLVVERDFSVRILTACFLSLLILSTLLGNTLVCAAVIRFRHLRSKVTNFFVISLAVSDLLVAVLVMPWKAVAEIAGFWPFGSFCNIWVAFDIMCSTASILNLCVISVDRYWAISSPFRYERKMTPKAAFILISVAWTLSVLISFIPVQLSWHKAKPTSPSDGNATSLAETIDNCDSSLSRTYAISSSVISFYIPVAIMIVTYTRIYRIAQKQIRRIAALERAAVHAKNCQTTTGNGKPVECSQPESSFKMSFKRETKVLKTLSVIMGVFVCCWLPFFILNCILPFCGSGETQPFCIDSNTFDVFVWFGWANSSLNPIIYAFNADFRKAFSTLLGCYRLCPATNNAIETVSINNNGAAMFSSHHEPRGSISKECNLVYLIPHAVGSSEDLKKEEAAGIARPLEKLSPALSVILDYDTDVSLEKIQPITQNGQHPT
- procedure-summary: Antagonist of Human D 1 Dopamine Receptor: qHTS; further: on the % scale 0 is the no-effect control and ±100 the full control effect
- reported-conditions: HEK293 TREx D1 cells, calcium flux, dopamine EC80; at 10 µM; stronger effect = lower value
The whole screen tested about 360,000 compounds, of which about 11,000 (3.1%) were called active. This is one part of a sample in which actives are shown more often than they occur.
# activity change, negative = inhibition per entry
Use % as the unit, but write only the number.

Check out these entries, answers already filled in.
COc1cccc(C(=O)Nc2ccc3oc(-c4ccc5ccccc5c4)nc3c2)c1 | 7.96
CCOC(=O)C1CCN(c2nc3c(S(=O)(=O)c4ccc(CC)cc4)nnn3c3ccc(Cl)cc23)CC1 | -7.85
CCc1ccc(C(=O)N2CCN(S(=O)(=O)c3sc(C(=O)O)c(C)c3C(=O)O)CC2)cc1 | -68.6
Cc1ccc(C(=O)N2CCN(S(=O)(=O)N3CCOCC3)CC2)cc1 | -3.63
COc1ccc(Br)cc1CNC(=O)c1cc(=O)[nH]c2ccc(S(=O)(=O)N3CCCC3)cc12 | 2.78
Cc1cccc(NC(=O)CSc2nnc(CNC(=O)c3cccc(C)c3)n2-c2ccccc2)c1 | -12.8

What measured activity change, negative = inhibition goes with COc1ccc(-c2cc(C(=O)NCc3cc(OC)c(OC)c(OC)c3)[nH]n2)cc1 ? -10.2

Thanks! And CCc1nc2cccnc2n1-c1ccc(CC(=O)Nc2c(C)cccc2C)cc1 ? 0.844

Then what about the compound Cc1oc(C)c2c(=O)cc(-c3ccc4c(c3)OCO4)cc(OC(=O)c3ccc(Cl)cc3)c12 ? -1.78

----------
- experimental-target: D(1A) dopamine receptor (Homo sapiens)
- procedure-summary: Antagonist of Human D 1 Dopamine Receptor: qHTS; further: on the % scale 0 is the no-effect control and ±100 the full control effect
- reported-conditions: HEK293 TREx D1 cells, calcium flux, dopamine EC80; at 10 µM; stronger effect = lower value
Hit rate of the full screen: of about 360,000 compounds, about 11,000 (3.1%) were called active. The list comes from a sample in which actives are over-represented; it also holds close analogues and randomly drawn compounds.
Quick reference: activity change, negative = inhibition of the listed items.

Cc1cccc(CCNC(=O)c2ccc3c(c2)nc2n3CCC(C)C2)c1 (stereo unspecified) | 2.06% (inactive)
Cn1c(=O)c2c(nc(Oc3ccc(C#N)cc3)n2Cc2ccc(Cl)cc2Cl)n(C)c1=O | 17.3% (inactive)
O=C(Nc1ccccc1)c1nnsc1S(=O)(=O)c1ccc(Cl)cc1 | -31.4% (active)
Brc1cccc(-c2nnn3c2nc(NC2CCCCC2)c2ccccc23)c1 | 11.9% (inactive)

// query activity change, negative = inhibition value for entry CCOc1ccc(C2C(=O)N(C3CCCCC3)CC(=O)N2CCC2=CCCCC2)cc1OC (stereo unspecified) 39.1% (inactive)

Now give it for COc1ccc(-n2ccn(CC(=O)Nc3ccc(C)c(C)c3)c(=O)c2=O)cc1OC too. -0.573% (inactive)

Try the molecule CSCCC(NC(=O)c1ccccc1)C(=O)N1CCN(Cc2ccc(Cl)cc2)CC1 (stereo unspecified) 18.2% (inactive)

Would you kindly repeat that for CC(=O)c1ccc(NC(=O)c2nc3nc(C)cc(C(F)F)n3n2)cc1 ? 6.33% (inactive)

Queued: CC(Oc1ccc(Cl)cc1Cl)C(=O)/C=C/N(C)C (stereo unspecified) -37.2% (active)

What about this molecule? CCOc1ccc(Nc2oc(/C=C/c3ccc(F)cc3)nc2C#N)cc1 -2.32% (inactive)

Next molecule up: CCOC(=O)C1CCC(CN(Cc2ccc(OC)cc2)S(=O)(=O)c2ccc(F)c(C(=O)Nc3cc(C)ccc3C)c2)CC1 (stereo unspecified) 15.6% (inactive)

// same read-out, input: O=C(Nc1ccc(Oc2ccccc2)cc1)C1CCN(S(=O)(=O)c2ccc(Cl)cc2)CC1 -14.4% (inactive)

Now consider COc1ccccc1NC(=O)c1sc2nc(C)c(C(=O)Nc3ccc(Cl)cc3)c(-c3ccc(Br)cc3)c2c1N . -7.07% (inactive)

Now try COc1cccc(NC(=O)CSc2cc(=O)n(C)c3ccc(Cl)cc23)c1 . -17.9% (inactive)

Lookup CCc1ccccc1NC(=O)Cc1ccc(NC(=O)N2CCCCc3ccccc32)cc1 -2.99% (inactive)
